FYI, the data here is from the supplement of paper PMC13380429.

- System: Vero E6 infected with SARS-CoV-2
- Experimental Protocol: inhibition of SARS-CoV-2 cytopathic effect; higher = more antiviral protection, active = above 15
- Test Context: 100 nM; 48 h
Measurement Label: inhibition of SARS-CoV-2 cytopathic effect (%)

compound="CCCNCC(O)COc1ccccc1C(=O)CCc1ccccc1 (configuration not stated)" observed_measurement=2.83
compound=NCC(=O)CCC(=O)O observed_measurement=-3.53
compound="Nc1ccc(C(=O)O)cc1 [potassium-p-aminobenzoate]" observed_measurement=-5.27
compound=COc1ccc2c(c1)c(CC(=O)O)c(C)n2C(=O)c1ccc(Cl)cc1 observed_measurement=-0.25
compound=CCOc1ccc(Cc2nccc3cc(OCC)c(OCC)cc23)cc1OCC observed_measurement=-9.06
compound="NC1CCN(c2nc3c(cc2F)c(=O)c(C(=O)O)cn3-c2ccc(F)cc2F)C1 (configuration not stated)" observed_measurement=-3.49
compound=CC(C)(C)c1ccc(-c2nc3c(N4CCN(Cc5ccc6nccnc6c5)CC4)cccc3[nH]2)cc1 observed_measurement=1.44
compound=COc1ccc(C(Cl)=C(c2ccc(OC)cc2)c2ccc(OC)cc2)cc1 observed_measurement=-0.43
compound="[O-][S+](c1ccccc1)c1ccc2nnnn2n1 (configuration not stated)" observed_measurement=0.02
compound=COc1ccc(C(C)(C)C)cc1CN[C@H]1C2CCN(CC2)[C@H]1C(c1ccccc1)c1ccccc1 observed_measurement=-1.99
compound=COC(=O)N1CCN(Cc2cccc(NC(=O)Nc3ccc(C)nc3)c2F)CC1 observed_measurement=-0.98
compound=CCCCOCCOc1nc(-c2ccc(C(=O)O)c(F)c2)sc1C observed_measurement=-1.87
compound=Cc1ccc(F)c(NC(=O)Nc2ccc(-c3cccc4[nH]nc(N)c34)cc2)c1 observed_measurement=-4.95
compound="CCOC(=O)[C@@](C)(N)Cc1ccc(O)c(O)c1 [methyldopate]" observed_measurement=-0.9
compound=CCn1c(=O)n(C2=C(CO)CN(CC3CCCCCCC3)CC2)c2ccccc21 observed_measurement=1.23
compound=Cc1cc(CCCOc2c(C)cc(-c3noc(C(F)(F)F)n3)cc2C)on1 observed_measurement=-1.07
compound=N=C(N)NCCC[C@H](NC(=O)c1sccc1NS(=O)(=O)c1cccc2nsnc12)C(=O)O observed_measurement=1.72

---

Measured inhibition of SARS-CoV-2 cytopathic effect accompanies every entry in the list below.
- Test system: Vero E6 infected with SARS-CoV-2
- Experimental Protocol: inhibition of SARS-CoV-2 cytopathic effect; higher = more antiviral protection, active = above 15
- Test Context: 100 nM; 48 h
Measurement Label: inhibition of SARS-CoV-2 cytopathic effect (%)

molecule="O=C1OC(OC(=O)c2cccnc2Nc2cccc(C(F)(F)F)c2)c2ccccc21 (stereo not drawn) [talniflumate]" test_system="Vero E6 infected with SARS-CoV-2" observed_measurement=-2.09
molecule=Nc1ccn([C@@H]2O[C@@](CO)(CCl)[C@@H](O)[C@H]2F)c(=O)n1 test_system="Vero E6 infected with SARS-CoV-2" observed_measurement=-3.04
molecule=CCOCOC[C@H](C[C@H](C)C(=O)NO)NC(=O)c1ccc(Oc2ccccc2)cc1 test_system="Vero E6 infected with SARS-CoV-2" observed_measurement=5.33

---

Listed compounds paired with reported SARS-CoV-2 infection rate
- Tested on: Vero E6 infected with SARS-CoV-2
- Experimental Protocol: SARS-CoV-2 infection rate relative to infected DMSO; higher = more infection, active = 60 or less
- Test Context: 24 h
Measurement Label: SARS-CoV-2 infection rate

compound="COc1ccc(-n2nc(CCC(=O)N(C)O)cc2-c2ccc(Cl)cc2)cc1 [tepoxalin] (0.833333 µM)" observed_measurement="104% (inactive)"
compound="N=C(N)NC(=N)Nc1ccccc1 [1-phenylbiguanide] (10 µM)" observed_measurement="86.5% (inactive)"
compound="CCCCn1ccc(N2CCC(c3ccccc3)CC2)c(Cl)c1=O (10 µM)" observed_measurement="116% (inactive)"
compound="CCC(=O)O[C@]1(C(=O)CCl)[C@@H](C)C[C@H]2[C@@H]3CCC4=CC(=O)C=C[C@]4(C)[C@@]3(F)[C@@H](O)C[C@@]21C [clobetasol-propionate] (10 µM)" observed_measurement="105% (inactive)"
compound="CC(=O)OC[C@H]1O[C@@H](n2ccc(=O)[nH]c2=O)[C@H](OC(C)=O)[C@@H]1OC(C)=O [uridine-triacetate] (10 µM)" observed_measurement="112% (inactive)"
compound="CC(=O)N[C@H](Cc1ccc2ccccc2c1)C(=O)N[C@H](Cc1ccc(Cl)cc1)C(=O)N[C@H](Cc1cccnc1)C(=O)N[C@@H](CO)C(=O)N[C@@H](Cc1ccc(O)cc1)C(=O)N[C@H](CCCNC(N)=O)C(=O)N[C@@H](CC(C)C)C(=O)N[C@@H](CCCNC(=N)N)C(=O)N1CCC[C@H]1C(=O)N[C@H](C)C(N)=O [cetrorelix] (10 µM)" observed_measurement="79.5% (inactive)"
compound="COP(=O)(OC)OC(c1ccc(Cl)cc1)P(=O)(OC)OC (configuration not stated) [mifobate] (10 µM)" observed_measurement="106% (inactive)"
